Origin of values: patent US20250236611A1

Exercise: state measured IC50 for each of the molecules provided.
Target: UniProt P52333
Sequence (P52333 1-1124): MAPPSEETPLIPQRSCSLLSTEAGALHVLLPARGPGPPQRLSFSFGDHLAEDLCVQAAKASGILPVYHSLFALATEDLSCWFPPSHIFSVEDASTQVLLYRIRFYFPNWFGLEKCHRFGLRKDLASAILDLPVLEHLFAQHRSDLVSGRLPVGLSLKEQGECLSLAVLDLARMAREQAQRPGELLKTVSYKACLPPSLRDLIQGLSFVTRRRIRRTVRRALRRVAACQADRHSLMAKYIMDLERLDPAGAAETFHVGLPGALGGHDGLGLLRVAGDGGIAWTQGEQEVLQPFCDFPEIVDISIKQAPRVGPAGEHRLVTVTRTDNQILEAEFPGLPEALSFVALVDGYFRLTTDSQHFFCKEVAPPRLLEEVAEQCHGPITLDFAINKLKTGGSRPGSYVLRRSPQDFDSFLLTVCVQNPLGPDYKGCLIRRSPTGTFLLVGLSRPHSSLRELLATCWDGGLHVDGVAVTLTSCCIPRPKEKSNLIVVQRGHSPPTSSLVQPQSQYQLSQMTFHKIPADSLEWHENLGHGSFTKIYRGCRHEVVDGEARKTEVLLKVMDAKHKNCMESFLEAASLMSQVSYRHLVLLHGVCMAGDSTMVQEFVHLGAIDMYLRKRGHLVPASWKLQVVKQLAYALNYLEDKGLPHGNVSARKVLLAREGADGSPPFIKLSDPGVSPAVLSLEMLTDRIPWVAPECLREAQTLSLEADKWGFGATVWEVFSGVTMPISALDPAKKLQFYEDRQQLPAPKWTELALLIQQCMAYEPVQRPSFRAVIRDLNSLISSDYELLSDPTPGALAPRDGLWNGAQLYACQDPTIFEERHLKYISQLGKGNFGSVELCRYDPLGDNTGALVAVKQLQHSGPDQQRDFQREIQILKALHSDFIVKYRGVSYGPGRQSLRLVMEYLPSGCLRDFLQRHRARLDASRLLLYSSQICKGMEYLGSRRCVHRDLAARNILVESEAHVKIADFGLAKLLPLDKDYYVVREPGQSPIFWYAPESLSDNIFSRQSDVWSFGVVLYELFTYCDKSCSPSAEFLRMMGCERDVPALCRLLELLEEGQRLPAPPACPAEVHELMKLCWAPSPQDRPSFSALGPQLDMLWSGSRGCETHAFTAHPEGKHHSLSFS
Test: JAK assay (KINASE-GLO luminescent kinase assay), JAK3
Type: biochemical
Details: 10 nM JAK enzyme, 800 nM Abl peptide, room temperature 75 min

Query (molecule): Cc1cnc(Nc2cc(CNC(=O)CCN(C)C)ns2)nc1-c1cnn(CC2(CF)CC2)c1 [CN(C)CCC(═O)NCC1═NSC(═C1)NC2═NC] ; field requested: IC50
< 10 nM

# iterate: Cc1cnc(Nc2ccc(N3CCN(C)CC3)cc2)nc1-c1cnn(CC2(F)CC2)c1 [CN1CCN(CC1)C2═CC═C(NC3═NC(═C(C]
< 10 nM

Repeat with Cc1cnc(Nc2ccc(N3CCN(C)CC3)cc2)nc1-c1cnn(CC2(C#N)CC2)c1 [CN1CCN(CC1)C2═CC═C(NC3═NC(═C(C([2H])]
< 10 nM

Ok, now N#CC1(Cn2cc(-c3nc(Nc4ccc(C(=O)O)nc4)ncc3Cl)cn2)CC1 [OC(═O)C1═NC═C(NC2═NC(═C]
< 1000 nM

Subsequent entry: Cc1cc(Nc2nc3c(c(-c4cnn(CC5(C#N)COC5)c4)n2)CN(C(=O)OC(C)(C)C)C3)sn1 [CC1═NSC(═C1)NC2═NC(═C3CN]
> 50000 nM

Then Cn1ccc(Nc2ncc(Cl)c(-c3cnn(CCC#N)c3)n2)n1 [C[N]1C═CC(═N1)NC2═NC(═C] ?
< 1000 nM

Query N#CCCn1cc(-c2nc(Nc3ccsc3)ncc2Cl)cn1 [ClC1═C(N═C(NC2═CSC═C2)N═C1)C3═C[N]] next
< 100000 nM

Try this molecule next: Cc1cnc(Nc2ccc(N3CCN(C(=O)OC(C)(C)C)CC3)cc2)nc1-c1cnn(CC2(CF)CC2)c1 [CC1═C(N═C(NC2═CC═C(C═C2)N3CCN]
< 100 nM

Same again, this time with CC(C)(C)OC(=O)N1CCN(c2ccc(Nc3ncc(Cl)c(-c4cnn(CCC#N)c4)n3)cc2)CC1 [CC(C)(C)OC(═O)N1CCN(CC1)C2═CC═C]
< 10 nM

// query: COCc1cc(Nc2ncc(C)c(-c3cnn(CC4(CF)CC4)c3)n2)sn1 [COCC1═NSC(═C1)NC2═NC(═C]
< 1000 nM

What about CNC1(Cn2cc(-c3nc(Nc4cc(C)ns4)ncc3Cl)cn2)CC1 [CNC1(CC1)C[N]2C═C(C═N2)C3═C] ?
< 10 nM

Continue with Cc1cnc(Nc2cc(CN3CCN(C)CC3)ns2)nc1-c1cnn(CC2(CF)CC2)c1 [CN1CCN(CC1)CC2═NSC(═C2)NC3═NC]
< 100 nM

Try this molecule next: Cc1cnc(Nc2ccc(C(=O)N(C)C)cc2)nc1-c1cnn(CC2(CF)CC2)c1 [CN(C)C(═O)C1═CC═C(NC2═NC(═C]
< 100 nM

Can you check Cc1cnc(Nc2cc(COC(=O)CCN3CCOCC3)ns2)nc1-c1cnn(CC2(CF)CC2)c1 [CC1═C(N═C(NC2═CC(═NS2)COC] next?
< 10 nM

Moving on to the next molecule: Cc1cc(Nc2ncc(Cl)c(-c3cnn(CC4(N(C)C(=O)OC(C)(C)C)CC4)c3)n2)sn1 [CN(C(═O)OC(C)(C)C)C1(CC1)C[N]2C═C]
< 100 nM

Same question, N#CCC1(Cn2cc(-c3nc(Nc4ccns4)ncc3C3CC3)cn2)CC1 [N#CCC1(CC1)C[N]2C═C(C═N2)C3═C] this time
< 100 nM

Next: Cc1cnc(Nc2ccc(CO)c(CO)c2)nc1-c1cnn(CC2(CF)CC2)c1 [CC1═C(N═C(NC2═CC═C(CO)C]
< 100 nM

Further, for NC(=O)CCn1cc(-c2nc(NC3CCNCC3(F)F)ncc2Cl)cn1 (centres unmarked) [NC(═O)CC[N]1C═C(C═N1)C2═C] ?
> 50000 nM

Also Cc1cnc(Nc2cc(COC(=O)CCN(C)C)ns2)nc1-c1cnn(CC2(CF)CC2)c1 [CN(C)CCC(═O)OCC1═NSC(═C1)NC2═NC] , if possible.
< 10 nM

And CC(=O)OCCc1ccc(Nc2ncc(Cl)c(-c3cnn(CCC#N)c3)n2)cc1 [CC(═O)OCCC1═CC═C(NC2═NC(═C] ?
< 100 nM

Would you kindly repeat that for Clc1cnc(Nc2cccc(CN3CCC3)c2)nc1 [ClC1═C(N═C(NC2═CC(═CC═C2)CN3CCC3)N═C1)] ?
< 10 nM

Then this molecule: N#CCCn1cc(-c2nc(Nc3ccc(CCO)cc3)ncc2Cl)cn1 [OCCC1═CC═C(NC2═NC(═C]
< 100 nM

And what about the molecule Cc1cnc(Nc2ccnc(CN(C)C)c2)nc1-c1cnn(CC2(CF)CCC2)c1 [CN(C)CC1═CC(═CC═N1)NC2═NC(═C] ?
< 100 nM

Cc1cnc(Nc2ccccn2)nc1-c1cnn(CC2(Cl)CC2)c1 [CC1═C(N═C(NC2═CC═CC═N2)N═C1)C3═C[N]] , same question.
< 100000 nM

Record: Cc1cnc(NCCN2CCCCC2)nc1-c1cnn(CCC#N)c1 [CC1═C(N═C(NCCN2CCCCC2)N═C1)C3═C[N]]
> 50000 nM

Same again, this time with Cc1cnc(Nc2ccc(CNC(=O)[C@H](C)NC(=O)OC(C)(C)C)cc2)nc1-c1cnn(CC2(CF)CC2)c1 [C[C@H](NC(═O)OC(C)(C)C)C]
< 100 nM

Try this molecule too: N#CCCn1cc(-c2nc(NC3CCNCC3(F)F)ncc2Cl)cn1 (centres unmarked) [FC1(F)CNCCC1NC2═NC(═C]
> 50000 nM

Can you handle CCS(=O)(=O)N1CC(CF)(Cn2cc(-c3nc(Nc4cc(C)ns4)ncc3Cl)cn2)C1 [CC[S](═O)(═O)N1CC(CF)(C[N]2C═C] next?
< 100 nM

Now this one: Cc1cncc(Nc2ncc(C)c(-c3cnn(CC4(CF)CCC4)c3)n2)c1 [CC1═CN═CC(═C1)NC2═NC(═C]
< 100 nM

----------
Target: JAK3 (Homo sapiens, UniProt P52333)
Sequence (P52333 1-1124): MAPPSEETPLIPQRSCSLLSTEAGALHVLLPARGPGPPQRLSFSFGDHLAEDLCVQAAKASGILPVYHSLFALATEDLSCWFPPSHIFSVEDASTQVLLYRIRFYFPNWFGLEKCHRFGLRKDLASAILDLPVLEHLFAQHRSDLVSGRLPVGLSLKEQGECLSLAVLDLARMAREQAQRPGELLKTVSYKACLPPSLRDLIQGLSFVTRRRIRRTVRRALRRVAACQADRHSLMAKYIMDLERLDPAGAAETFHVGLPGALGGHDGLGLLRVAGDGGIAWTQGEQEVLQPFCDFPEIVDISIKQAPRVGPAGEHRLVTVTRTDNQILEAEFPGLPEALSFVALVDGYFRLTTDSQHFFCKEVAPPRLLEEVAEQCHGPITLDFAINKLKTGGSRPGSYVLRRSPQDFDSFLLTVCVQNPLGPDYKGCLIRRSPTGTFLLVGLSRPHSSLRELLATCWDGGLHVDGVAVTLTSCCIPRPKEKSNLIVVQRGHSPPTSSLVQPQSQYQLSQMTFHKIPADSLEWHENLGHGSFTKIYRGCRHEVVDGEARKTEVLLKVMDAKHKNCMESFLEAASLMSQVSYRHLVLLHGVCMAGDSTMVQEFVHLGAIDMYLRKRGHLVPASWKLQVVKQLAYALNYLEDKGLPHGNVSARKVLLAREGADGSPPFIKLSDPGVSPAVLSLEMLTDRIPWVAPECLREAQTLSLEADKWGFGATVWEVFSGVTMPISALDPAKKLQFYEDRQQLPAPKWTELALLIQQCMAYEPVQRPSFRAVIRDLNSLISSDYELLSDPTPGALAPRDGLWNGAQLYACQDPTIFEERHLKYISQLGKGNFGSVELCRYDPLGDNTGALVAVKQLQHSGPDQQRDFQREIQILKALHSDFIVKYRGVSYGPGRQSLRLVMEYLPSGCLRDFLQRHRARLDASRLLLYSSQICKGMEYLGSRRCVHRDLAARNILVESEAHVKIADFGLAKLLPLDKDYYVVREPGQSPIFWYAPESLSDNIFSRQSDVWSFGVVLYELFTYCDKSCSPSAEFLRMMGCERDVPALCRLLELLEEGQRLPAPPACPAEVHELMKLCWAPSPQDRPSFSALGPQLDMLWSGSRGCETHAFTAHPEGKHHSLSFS
Experiment: JAK assay (KINASE-GLO luminescent kinase assay), JAK3
Format: biochemical
Conditions: 10 nM JAK enzyme, 800 nM Abl peptide, room temperature 75 min
Quantity name: IC50

Report IC50 for CCS(=O)(=O)N1CC(CO)(Cn2cc(-c3nc(Nc4cc(C)ns4)ncc3Cl)cn2)C1 [CC[S](═O)(═O)N1CC(CO)] please.
< 100000 nM

Proceed to Cc1cnc(Nc2ccc(CN3CCOCC3)cc2)nc1 [CC1═C(N═C(NC2═CC═C(CN3CCOCC3)C═C2)N═C1)]
< 10 nM

Then what about the compound COCCOc1ccc(Nc2ncc(C)c(-c3cnn(CC4(CF)CC4)c3)n2)cc1 [COCCOC1═CC═C(NC2═NC(═C] ?
< 100 nM

Lookup CNC(=O)c1ccc(Nc2ncc(C)c(-c3cnn(CC4(CF)CC4)c3)n2)cc1 [CNC(═O)C1═CC═C(NC2═NC(═C]
< 10 nM

Also, N#CCC1(Cn2cc(-c3ccnc(Nc4cc(CO)ns4)n3)cn2)CC1 [OCC1═NSC(═C1)NC2═NC(═CC═N2)C3═C[N]] please.
< 100 nM

// repeat for COC(=O)c1cc(Nc2ncc(C)c(-c3cnn(CCC#N)c3)n2)ccc1N1CCOCC1 [COC(═O)C1═C(C═CC(═C1)NC2═NC(═C] and report
< 10 nM

Entry N#CCCn1cc(-c2nc(Nc3cccc(C(=O)O)c3)ncc2Cl)cn1 [OC(═O)C1═CC═CC(═C1)NC2═NC] please
< 1000 nM
